target-under-test: T1, human CD112R on CHO-CD112R cells (human, UniProt Q6DKI7 41-326)
T1 construct: whole, on cells; also called hCD112R; PVRIG
T1 sequence (looked up): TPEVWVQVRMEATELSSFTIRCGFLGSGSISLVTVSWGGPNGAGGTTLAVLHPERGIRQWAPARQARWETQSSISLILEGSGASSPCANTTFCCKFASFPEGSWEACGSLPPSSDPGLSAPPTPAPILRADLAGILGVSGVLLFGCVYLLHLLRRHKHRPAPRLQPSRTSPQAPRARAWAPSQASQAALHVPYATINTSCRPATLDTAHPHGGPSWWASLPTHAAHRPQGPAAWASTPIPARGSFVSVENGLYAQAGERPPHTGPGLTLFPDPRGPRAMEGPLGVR
assay-summary: FACS on CHO-CD112R cells
The label is true for EC50 below 0.3 µg/mL and false for EC50 equal to or exceeding 0.3 µg/mL.

[
  {
    "binder": "Chi-69 (antibody, V domains shown, chimeric) VH: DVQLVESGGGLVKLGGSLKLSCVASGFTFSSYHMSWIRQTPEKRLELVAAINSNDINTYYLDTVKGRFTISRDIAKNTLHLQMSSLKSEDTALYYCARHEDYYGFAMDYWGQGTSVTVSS VL: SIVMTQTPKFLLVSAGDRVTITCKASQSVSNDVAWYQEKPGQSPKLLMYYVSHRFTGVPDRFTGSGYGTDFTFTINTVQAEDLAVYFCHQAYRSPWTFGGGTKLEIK",
    "label": "true"
  },
  {
    "binder": "Chi-63 (antibody, V domains shown, chimeric) VH: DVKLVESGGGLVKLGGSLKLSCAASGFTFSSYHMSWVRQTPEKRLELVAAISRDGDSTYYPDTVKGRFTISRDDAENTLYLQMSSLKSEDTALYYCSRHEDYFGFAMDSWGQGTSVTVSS VL: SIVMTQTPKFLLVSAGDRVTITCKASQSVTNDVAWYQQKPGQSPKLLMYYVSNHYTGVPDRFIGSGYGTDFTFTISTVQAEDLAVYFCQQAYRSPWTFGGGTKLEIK",
    "label": "false"
  },
  {
    "binder": "Chi-72 (antibody, V domains shown, chimeric) VH: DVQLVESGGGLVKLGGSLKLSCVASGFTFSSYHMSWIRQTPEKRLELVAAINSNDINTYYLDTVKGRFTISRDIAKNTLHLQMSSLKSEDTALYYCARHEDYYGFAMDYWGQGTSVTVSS VL: DIQLTQSPASLSVSVGETVTITCRVSANIYSNLVWYHQRQGKSPQLLVYGGTNLADGVPSRFSGSGSGTQFSLKINSLQSEDFGSYHCQHFWSTPYTFGGGTKLEIK",
    "label": "false"
  },
  {
    "binder": "Chi-62 (antibody, V domains shown, chimeric) VH: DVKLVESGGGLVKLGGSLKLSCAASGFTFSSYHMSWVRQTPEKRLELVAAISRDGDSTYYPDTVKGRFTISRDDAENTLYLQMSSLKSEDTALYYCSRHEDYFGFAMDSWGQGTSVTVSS VL: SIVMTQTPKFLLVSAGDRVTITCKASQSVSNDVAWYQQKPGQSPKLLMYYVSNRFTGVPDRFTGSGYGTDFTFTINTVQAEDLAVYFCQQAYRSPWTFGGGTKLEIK",
    "label": "true"
  },
  {
    "binder": "Chi-45 (antibody, V domains shown, chimeric) VH: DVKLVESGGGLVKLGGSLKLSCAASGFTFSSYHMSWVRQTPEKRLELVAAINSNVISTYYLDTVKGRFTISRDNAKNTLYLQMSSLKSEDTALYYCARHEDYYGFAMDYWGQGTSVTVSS VL: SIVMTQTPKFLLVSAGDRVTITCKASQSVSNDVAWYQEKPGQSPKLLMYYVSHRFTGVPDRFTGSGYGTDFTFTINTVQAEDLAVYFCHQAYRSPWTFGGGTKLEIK",
    "label": "false"
  },
  {
    "binder": "Chi-54 (antibody, V domains shown, chimeric) VH: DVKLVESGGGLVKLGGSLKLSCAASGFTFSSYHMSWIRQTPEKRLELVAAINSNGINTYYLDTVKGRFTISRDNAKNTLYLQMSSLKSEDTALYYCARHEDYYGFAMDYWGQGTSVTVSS VL: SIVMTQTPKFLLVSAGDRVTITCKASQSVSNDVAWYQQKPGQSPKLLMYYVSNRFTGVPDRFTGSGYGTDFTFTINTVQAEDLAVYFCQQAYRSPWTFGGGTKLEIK",
    "label": "true"
  }
]

Hi there! Is EC50 for Chi-55 (antibody, V domains shown, chimeric) VH: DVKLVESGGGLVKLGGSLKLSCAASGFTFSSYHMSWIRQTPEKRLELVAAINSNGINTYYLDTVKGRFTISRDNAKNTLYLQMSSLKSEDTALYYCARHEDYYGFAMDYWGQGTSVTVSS VL: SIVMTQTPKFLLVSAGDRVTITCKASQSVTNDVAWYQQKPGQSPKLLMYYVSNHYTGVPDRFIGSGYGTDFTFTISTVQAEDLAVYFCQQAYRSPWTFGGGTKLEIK below 0.3 µg/mL, do you know? true

Hi there! Is EC50 for Chi-53 (antibody, V domains shown, chimeric) VH: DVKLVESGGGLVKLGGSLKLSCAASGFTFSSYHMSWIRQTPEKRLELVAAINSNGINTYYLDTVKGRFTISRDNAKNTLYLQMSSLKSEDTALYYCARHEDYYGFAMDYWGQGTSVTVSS VL: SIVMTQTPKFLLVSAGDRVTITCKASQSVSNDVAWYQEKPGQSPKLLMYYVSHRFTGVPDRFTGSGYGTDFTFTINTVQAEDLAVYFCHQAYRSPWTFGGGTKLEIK below 0.3 µg/mL, do you know? false

Hi there! Is EC50 for Chi-36 (antibody, V domains shown, chimeric) VH: EVQLQQSGPELVKPGASVRISCKASGYTFTDYNMHWVKQSHGKSLEWIGYIYPYNGGTGHNQNFKSKATLTVDKSSSTAYMEFRSLTSDDSAVYYCAREDFRHEKMDYWGQGTSVTVSS VL: DIQMTQSPASLSASVGETVTITCRTSDNIYVYLSWYQQKQGKSPQLLVYNAKTLTENVPSRFSGSGSGTQFSLKINSLQPEDFGSYYCQHHYGTPYTFGGGTKLEIK below 0.3 µg/mL, do you know? false

Hi there! Is EC50 for Chi-71 (antibody, V domains shown, chimeric) VH: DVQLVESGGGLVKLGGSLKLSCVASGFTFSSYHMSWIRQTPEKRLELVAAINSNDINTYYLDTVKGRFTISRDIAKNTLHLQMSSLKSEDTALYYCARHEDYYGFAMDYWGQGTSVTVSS VL: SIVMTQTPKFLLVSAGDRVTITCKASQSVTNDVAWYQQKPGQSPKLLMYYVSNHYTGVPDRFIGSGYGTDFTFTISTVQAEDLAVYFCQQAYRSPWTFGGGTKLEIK below 0.3 µg/mL, do you know? true
